Reported GI50 values for the following molecules.
- Test system: BT-549 breast
- Method description: NCI tumour cell line growth inhibition, 48 h

Below are worked cases with known answers.
What measured GI50 is associated with C=C(C)[C@@H]1CC[C@]2(C(=O)NCCCN)CC[C@]3(C)[C@H](CC[C@@H]4[C@@]5(C)CC[C@H](O)C(C)(C)[C@@H]5CC[C@]43C)[C@@H]12 on BT-549 breast? 23.8 µM

Now try Cc1cc(N2CCCCC2)nc(N(CCNc2ccnc3cc(Cl)ccc23)Cc2ccco2)n1 . 1.82 µM

Others:
What measured GI50 is associated with NC(=O)[C@H]1CCN(c2ncnc(N)c2F)C[C@@H]1N1CCC[C@@H](Nc2cc(Cl)cc(C(F)(F)F)c2)C1=O on BT-549 breast? 21.4 µM

Now try COc1cccc(OC(=O)c2ccccc2Nc2ccnc(C(F)(F)F)c2)c1 . 8.11 µM

Now try COc1cc2cc(C(=O)N3CC(CCl)c4c3cc(NC(=O)C(C)(C)c3ccccc3[N+](=O)[O-])c3ccccc43)[nH]c2c(OC)c1OC (centres undefined) . 26.1 µM

Now try OCC1OC(n2ccc3c2ncn2ncnc32)C(O)C1O (centres undefined) . 1.23 µM

Now try COc1cccc(C2=C(c3cn(C)c4ccccc34)C(=O)NC2=O)c1 . 11.9 µM

Now try CC[C@H](Nc1nc(N)nc(C)c1C#N)c1nc2cccc(CN(C)c3ncc(C(=O)NO)cn3)c2c(=O)n1-c1ccccc1 . 2.26 µM

Now try CCOC(=O)c1c2c(n(CC(C)C)c1C)-c1nc[nH]c1C(=O)C2=O . 16.4 µM
